Provenance of the data: patent US9428452B2

# MEASUREMENT_TARGET: Human RORγ Ligand Binding Domain (RORγ-LBD) (Homo sapiens, UniProt P51449)
# Construct: His6 with thrombin site) (N); made in house; host or cells: E. coli BL21(DE3), modified pET21a vector
# Sequence (P51449 263-518): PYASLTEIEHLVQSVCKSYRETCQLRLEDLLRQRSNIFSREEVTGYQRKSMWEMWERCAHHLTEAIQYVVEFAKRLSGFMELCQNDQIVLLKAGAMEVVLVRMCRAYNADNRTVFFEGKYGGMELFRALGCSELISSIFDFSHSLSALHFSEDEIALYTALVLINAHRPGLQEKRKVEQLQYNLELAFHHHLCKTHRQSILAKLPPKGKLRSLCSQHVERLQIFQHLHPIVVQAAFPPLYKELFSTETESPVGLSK
# TEST_DESCRIPTION: Dual Fluorescence Energy Transfer (FRET) assay: co-activator SRC1(2) peptide interaction with RORγ-LBD
# Assay type: biochemical
# CONDITION_DETAILS: RORγ-LBD / SRC1(2) peptide, read-out: mean pIC50 (converted)
# Description: Dual Fluorescence Energy Transfer (FRET) Assay This assay is based on the knowledge that nuclear receptors interact with cofactors (transcription factors) in a ligand dependent manner. […] Approximately 50 g E. coli cell pellet was resuspended in 300 mL of lysis buffer (30 mM imidazole pH 7.0 and 150 mM NaCl). […] After washing to baseline absorbance with the equilibration buffer, the column was developed with a gradient from 30 to 500 mM imidazole pH 7.0. […]
PROPERTY_LABEL: IC50

COMPOUND | IC50
Cc1ccc(N(CC(C)C)S(=O)(=O)c2ccc(OCC3CCOCC3)c(C3CC3)c2)c(C)c1 | ≤ 15.8 nM
Cc1ccc(N(CC(C)C)S(=O)(=O)c2ccc(OCC3CCOCC3)cc2C)c(C)c1 | ≤ 15.8 nM
Cc1ccc(N(CC(C)C)S(=O)(=O)c2ccc(OCC3CCOCC3)cc2)c(C)c1 | ≤ 15.8 nM
Cc1ccc(N(CC(C)C)S(=O)(=O)c2cc(F)c(OCC3CCOCC3)c(F)c2)c(C)c1 | ≤ 15.8 nM
Cc1ccc(N(CC(C)C)S(=O)(=O)c2ccc(OCC3CCOCC3)cc2O)c(C)c1 | ≤ 15.8 nM

QUERY: Would you kindly share the measured IC50 for Cc1ccc(N(CC(C)C)S(=O)(=O)c2ccc(OCC3CCOCC3)c(Cl)c2)c(C)c1 ?
RESULT: ≤ 15.8 nM

QUERY: Please answer likewise for CCc1ccc(N(CC(C)C)S(=O)(=O)c2ccc(C(O)CN3CCOCC3)c(CO)c2)cc1 (racemic)
RESULT: 31.6 nM

QUERY: Please answer likewise for Cc1ccc(N(CC(C)C)S(=O)(=O)c2ccc(OCC3CCOCC3)c(C)c2)c(C)c1
RESULT: ≤ 15.8 nM

QUERY: Please answer likewise for CCc1ccc(N(CC(C)C)S(=O)(=O)c2ccc([C@H](O)CN3CCOCC3)c(CO)c2)cc1
RESULT: 31.6 nM

QUERY: Please answer likewise for CCc1ccc(N(CC(C)C)S(=O)(=O)c2ccc([C@@H](O)CN3CCOCC3)c(CO)c2)cc1
RESULT: 63.1 nM
